Target: Sphingosine kinase 2 (Homo sapiens, UniProt Q9NRA0)
Sequence (Q9NRA0 whole entry): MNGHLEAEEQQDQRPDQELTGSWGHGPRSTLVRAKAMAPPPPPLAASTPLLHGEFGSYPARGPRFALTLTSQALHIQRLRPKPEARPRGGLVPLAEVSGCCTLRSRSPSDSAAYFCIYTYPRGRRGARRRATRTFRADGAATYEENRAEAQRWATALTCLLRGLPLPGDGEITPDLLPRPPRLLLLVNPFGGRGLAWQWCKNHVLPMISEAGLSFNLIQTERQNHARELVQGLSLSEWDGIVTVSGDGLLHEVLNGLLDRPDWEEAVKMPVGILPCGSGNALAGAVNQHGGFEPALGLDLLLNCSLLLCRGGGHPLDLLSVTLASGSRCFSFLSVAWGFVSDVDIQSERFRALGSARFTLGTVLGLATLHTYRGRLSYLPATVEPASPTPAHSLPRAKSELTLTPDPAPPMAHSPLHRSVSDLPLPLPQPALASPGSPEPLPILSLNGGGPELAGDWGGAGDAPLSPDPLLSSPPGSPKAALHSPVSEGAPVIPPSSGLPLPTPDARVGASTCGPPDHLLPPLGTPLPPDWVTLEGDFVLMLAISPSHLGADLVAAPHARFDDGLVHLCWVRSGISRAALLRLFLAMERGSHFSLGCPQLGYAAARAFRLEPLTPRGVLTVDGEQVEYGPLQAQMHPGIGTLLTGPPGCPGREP
pIC50: −log10 of the molar value.
Assay read-out pIC50 on Sphingosine kinase 2 (Homo sapiens, UniProt Q9NRA0); records merged from the literature.
ATTRIBUTE_MEASURED: pIC50

a. Cc1cc(CS(=O)(=O)c2ccccc2)cc(OCc2ccc(CNCCO)cc2)c1
b. O=C(c1ccc(OCc2noc(-c3ccc(C(F)(F)F)cc3)n2)cc1)N1CCC[C@H]1CO
Prompt: Could you check which of a and b has a smaller value for pIC50? Pick one; state its label.
Completion: a

1. N[C@@H](CO)[C@H](O)/C=C/CCCCCCCCc1ccc(I)cc1
2. Cc1nc(-c2cccc(OCc3ccc(CN4CCC[C@@H]4CO)cc3)c2)no1
Prompt: Of 1 and 2 , which one carries the higher reported pIC50? Write the label of whichever entry you select.
Completion: 2
(2: 8.62, 1: 5.24)

====

Endpoint summary: pIC50, system: Sphingosine kinase 2 (Homo sapiens, UniProt Q9NRA0), multiple sources combined.
Target: Sphingosine kinase 2 (Homo sapiens, UniProt Q9NRA0)
Sequence (Q9NRA0 whole entry): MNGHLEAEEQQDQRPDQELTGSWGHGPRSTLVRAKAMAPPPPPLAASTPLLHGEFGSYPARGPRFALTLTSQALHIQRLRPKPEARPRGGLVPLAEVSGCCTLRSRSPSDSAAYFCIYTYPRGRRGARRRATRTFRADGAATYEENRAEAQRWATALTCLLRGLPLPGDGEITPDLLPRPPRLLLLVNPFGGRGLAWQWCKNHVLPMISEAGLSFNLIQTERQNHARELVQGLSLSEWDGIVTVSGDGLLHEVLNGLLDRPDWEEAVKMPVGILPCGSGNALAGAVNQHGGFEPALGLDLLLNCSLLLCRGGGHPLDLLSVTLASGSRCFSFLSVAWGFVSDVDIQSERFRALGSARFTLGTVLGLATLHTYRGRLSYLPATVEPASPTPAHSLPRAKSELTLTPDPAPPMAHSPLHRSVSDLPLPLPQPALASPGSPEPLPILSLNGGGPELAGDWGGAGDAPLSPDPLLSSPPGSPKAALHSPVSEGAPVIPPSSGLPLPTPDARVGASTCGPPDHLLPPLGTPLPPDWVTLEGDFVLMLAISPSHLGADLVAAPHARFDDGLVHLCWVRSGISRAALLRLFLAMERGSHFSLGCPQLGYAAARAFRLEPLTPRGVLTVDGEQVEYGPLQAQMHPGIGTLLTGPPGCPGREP
pIC50: −log10 of the molar value.
ATTRIBUTE_MEASURED: pIC50

MOLECULE	SYSTEM_UNDER_TEST	pIC50
Cc1cc(CS(=O)(=O)c2ccccc2)cc(OCc2ccc(CN3C[C@@H](O)[C@@H](O)C3)cc2)c1	Sphingosine kinase 2 (Homo sapiens, UniProt Q9NRA0)	5.14
O=C(NCCO)c1ccc(COc2cccc(OCc3ccccc3)c2)cc1	Sphingosine kinase 2 (Homo sapiens, UniProt Q9NRA0)	5.90
O=C(c1ccc(COc2cccc(OCc3ccccc3)c2)cc1)N1CCC[C@@H]1CO	Sphingosine kinase 2 (Homo sapiens, UniProt Q9NRA0)	5.91
CN1CCN(CCc2ccc(Nc3nc(-c4ccc5ccccc5c4)cs3)cc2)C(CO)C1 (stereo not drawn)	Sphingosine kinase 2 (Homo sapiens, UniProt Q9NRA0)	5.77
NC(=O)CNC(=O)c1ccc(COc2cccc(OCc3ccccc3)c2)cc1	Sphingosine kinase 2 (Homo sapiens, UniProt Q9NRA0)	7.94

A. Cc1nc2ccc(-c3ccc(CN4CCC[C@@H]4CO)cc3)cc2n1C[C@H]1CCCO1
B. OCC1CCCN1Cc1ccc(COc2cccc(OCc3ccccc3)c2)cc1 (single isomer, unassigned)
C. N[C@@H](CO)[C@H](O)/C=C/CCCCCCc1ccc(I)cc1
D. O=S(=O)(Cc1cccc(OCc2ccc(CN3CCC[C@@H]3CO)cc2)c1)c1ccccc1
Prompt: # rank_down: sort by pIC50, max first Response format: the labels, sorted as the prompt asks.
Completion: B, D, C, A
